- Assay comment: Cytotoxicity against human CEM-SS cells by MTT assay
- Type: cell-based
Readout type: CC50

# count of solved cases: 5
**Q:** Would you kindly share the measured CC50 for COC(=O)CCCC=C(c1cc(Br)c(OC)c(C(=O)OC)c1)c1cc(Br)c(OC)c(C(=O)OC)c1 ?
**A:** 13 µM

**Q:** // next record COc1c(C)cc(/C(=C\CCc2nnc(C)o2)c2ccc(C#N)cc2)cc1C(=O)SC
**A:** 5.5 µM

**Q:** // next record COc1c(C)cc(C(=CCCCc2nnc(C)o2)c2cc(C)c(OC)c(C(=O)SC)c2)cc1C(=O)SC
**A:** 5.3 µM

**Q:** // next record COc1c(C)cc(/C(=C/CCc2nnc(C)o2)c2ccc(C#N)cc2)cc1C(=O)SC
**A:** 1.2 µM

**Q:** // next record COC(=O)CCCC=C(c1cc(Cl)c(OC)c(C(=O)OC)c1)c1cc(Cl)c(OC)c(C(=O)OC)c1
**A:** 32 µM

Next:
**Q:** Would you kindly share the measured CC50 for COc1c(C)cc(/C(=C/CCc2nnc(C)o2)c2cc(C)c3onc(OC)c3c2)cc1C(=O)SC ?
**A:** 1.2 µM

**Q:** // next record COc1c(C)cc(/C(=C/CCc2nnc(C)o2)c2cccc(C#N)c2)cc1C(=O)SC
**A:** 1.3 µM

**Q:** // next record COc1c(C)cc(/C(=C/CCc2nnc(C)o2)c2cc(C)c3on(C)c(=O)c3c2)cc1C(=O)SC
**A:** 17 µM

**Q:** // next record COc1c(C)cc(/C(=C/CCCc2nnc(C)o2)c2ccc(C#N)cc2)cc1C(=O)SC
**A:** 4.8 µM

====

Readings of pEC50 for the listed compounds
- Tested on: Human immunodeficiency virus 1
- Assay comment: Antiviral activity against HIV1 3B in human MT4 cells by MTT assay
- Run parameters: Human immunodeficiency virus 1, 3B
The quantity pEC50 is defined as the negative base-10 logarithm of the molar concentration.

**Q:** Would you kindly share the measured pEC50 for COc1c(C)cc(/C(=C\CCc2nnc(C)o2)c2cc(C)c3onc(OC)c3c2)cc1C(=O)SC ?
**A:** 6.09

**Q:** // next record COC(=O)c1cc(/C(=C\CCc2nnn(C)n2)c2cccc(C#N)c2)cc(C)c1OC
**A:** 5.82

**Q:** // next record COc1c(C)cc(/C(=C\CCCc2nnc(C)o2)c2cc(C)c3on(C)c(=O)c3c2)cc1C(=O)SC
**A:** 6.12

Next:
**Q:** Would you kindly share the measured pEC50 for COc1c(C)cc(/C(=C\CCc2nnc(C)o2)c2cc(C)c3on(C)c(=O)c3c2)cc1C(=O)SC ?
**A:** 5.43

**Q:** // next record COc1c(C)cc(C(=CCCCc2nnc(C)o2)c2cc(C)c(OC)c(C(=O)SC)c2)cc1C(=O)SC
**A:** 5.89

**Q:** // next record COc1c(C)cc(/C(=C\CCCc2nnc(C)o2)c2cccc(C#N)c2)cc1C(=O)SC
**A:** 6.08

**Q:** // next record COc1c(C)cc(/C(=C\CCCc2nnc(C)o2)c2ccc(C#N)cc2)cc1C(=O)SC
**A:** 6.44

**Q:** // next record COC(=O)c1cc(/C(=C\CCc2nnc(C)o2)c2cc(C)c3onc(OC)c3c2)cc(C)c1OC
**A:** 6.38

**Q:** // next record COC(=O)c1cc(/C(=C\CCc2nnc(C)o2)c2ccc(C#N)cc2)cc(C)c1OC
**A:** 5.70

====

Readings of EC50 for the listed molecules
- Tested on: Human immunodeficiency virus 1
- Assay comment: Antiviral activity against HIV1 RF in human CEM-SS cells by XTT assay
- Assay type: functional, organism-based
- Run parameters: Human immunodeficiency virus 1, RF
Only the number, expressed in nM, is required.

# count of solved cases: 3
**Q:** Would you kindly share the measured EC50 for COc1c(C)cc(C(=CCCCc2nnc(C)o2)c2cc(C)c(OC)c(C(=O)SC)c2)cc1C(=O)SC ?
**A:** 2200

**Q:** // next record COc1c(C)cc(/C(=C\CCc2nnc(C)o2)c2cc(C)c3on(C)c(=O)c3c2)cc1C(=O)SC
**A:** 6400

**Q:** // next record COc1c(C)cc(/C(=C\CCc2nnc(C)o2)c2ccc3oncc3c2)cc1C(=O)SC
**A:** 2600

Next:
**Q:** Would you kindly share the measured EC50 for COC(=O)c1cc(/C(=C/CCc2nnc(C)o2)c2cc(C)c3oc(=O)n(C)c3c2)cc(C)c1OC ?
**A:** 430

**Q:** // next record COc1c(C)cc(/C(=C\CCCc2nnc(C)o2)c2ccc(C#N)cc2)cc1C(=O)SC
**A:** 600

====

Readings of pEC50 for the listed compounds
- System: Human immunodeficiency virus 1
- Assay comment: Antiviral activity against HIV1 RF in human CEM-SS cells by XTT assay
- Assay type: functional, organism-based
- Run parameters: Human immunodeficiency virus 1, RF
The quantity pEC50 is defined as the negative base-10 logarithm of the molar concentration.

**Q:** Would you kindly share the measured pEC50 for COc1c(C)cc(/C(=C\CCc2nnc(C)o2)c2cc(C)c3onc(OC)c3c2)cc1C(=O)SC ?
**A:** 6.28

**Q:** // next record COC(=O)c1cc(/C(=C\CCc2nnc(C)o2)c2ccc(C#N)cc2)cc(C)c1OC
**A:** 5.52

**Q:** // next record COC(=O)c1cc(/C(=C\CCc2nnn(C)n2)c2cccc(C#N)c2)cc(C)c1OC
**A:** 5.62

**Q:** // next record COC(=O)c1cc(/C(=C\CCc2nnc(C)o2)c2cc(C)c3on(C)c(=O)c3c2)cc(C)c1OC
**A:** 5.52

**Q:** // next record COc1c(C)cc(/C(=C\CCCc2nnc(C)o2)c2cc(C)c3on(C)c(=O)c3c2)cc1C(=O)SC
**A:** 6.01

Next:
**Q:** Would you kindly share the measured pEC50 for COC(=O)c1cc(/C(=C\CCc2nnc(C)o2)c2cc(C)c3onc(OC)c3c2)cc(C)c1OC ?
**A:** 6.44

**Q:** // next record Cc1ccnc2c1NC(=O)c1cccnc1N2C1CC1
**A:** 7.82

**Q:** // next record COc1c(C)cc(/C(=C\CCc2nnc(C)o2)c2ccc(C#N)cc2)cc1C(=O)SC
**A:** 5.68

**Q:** // next record COc1c(C)cc(/C(=C\CCCc2nnc(C)o2)c2cc(C)c3onc(OC)c3c2)cc1C(=O)SC
**A:** 7.30

**Q:** // next record COC(=O)CCCC=C(c1cc(Cl)c(OC)c(C(=O)OC)c1)c1cc(Cl)c(OC)c(C(=O)OC)c1
**A:** 8.00

**Q:** // next record COc1c(C)cc(/C(=C\CCCc2nnc(C)o2)c2cccc(C#N)c2)cc1C(=O)SC
**A:** 6.30

**Q:** // next record COc1c(C)cc(/C(=C/CCc2nnc(C)o2)c2ccc3oc(=O)n(C)c3c2)cc1C(=O)SC
**A:** 6.22

====

- Experimental system: Human immunodeficiency virus type 1 reverse transcriptase (Human immunodeficiency virus 1)
- Assay comment: Inhibition of HIV1 reverse transcriptase
Note to self: IC50 under 7 µM means Satisfied, ties and anything higher get Not satisfied.

Worked examples follow.
**Q:** Quick check: IC50 of COC(=O)c1cc(/C(=C\CCc2nnc(C)o2)c2ccc(C#N)cc2)cc(C)c1OC under 7 µM?
**A:** Not satisfied

**Q:** // next record COC(=O)c1cc(C(=CCCc2nnn(C)n2)c2cc(C)c(OC)c(C(=O)OC)c2)cc(C)c1OC
**A:** Not satisfied

**Q:** // next record COc1c(C)cc(/C(=C\CCc2nnc(C)o2)c2ccc(C#N)cc2)cc1C(=O)SC
**A:** Satisfied

**Q:** // next record COc1c(C)cc(C(=CCCCc2nnc(C)o2)c2cc(C)c(OC)c(C(=O)SC)c2)cc1C(=O)SC
**A:** Satisfied

**Q:** // next record COc1c(C)cc(/C(=C/CCCc2nnc(C)o2)c2cc(C)c3onc(OC)c3c2)cc1C(=O)SC
**A:** Satisfied

**Q:** // next record COC(=O)c1cc(/C(=C\CCc2nnn(C)n2)c2cccc(C#N)c2)cc(C)c1OC
**A:** Not satisfied

**Q:** // next record COC(=O)c1cc(/C(=C\CCc2nnc(C)o2)c2cc(C)c3on(C)c(=O)c3c2)cc(C)c1OC
**A:** Not satisfied

**Q:** // next record COc1c(C)cc(/C(=C\CCCc2nnc(C)o2)c2cccc(C#N)c2)cc1C(=O)SC
**A:** Satisfied

Please find the next compound below.
**Q:** Quick check: IC50 of COc1c(C)cc(/C(=C/CCc2nnc(C)o2)c2cccc(C#N)c2)cc1C(=O)SC under 7 µM?
**A:** Not satisfied
